test: self-splicing fitness, log relative to wild type (ln ratio); higher = more splicing; Tetrahymena group I intron in knt gene, E. coli kanamycin selection, DiMSum; sequences stand for … in CUCUCU…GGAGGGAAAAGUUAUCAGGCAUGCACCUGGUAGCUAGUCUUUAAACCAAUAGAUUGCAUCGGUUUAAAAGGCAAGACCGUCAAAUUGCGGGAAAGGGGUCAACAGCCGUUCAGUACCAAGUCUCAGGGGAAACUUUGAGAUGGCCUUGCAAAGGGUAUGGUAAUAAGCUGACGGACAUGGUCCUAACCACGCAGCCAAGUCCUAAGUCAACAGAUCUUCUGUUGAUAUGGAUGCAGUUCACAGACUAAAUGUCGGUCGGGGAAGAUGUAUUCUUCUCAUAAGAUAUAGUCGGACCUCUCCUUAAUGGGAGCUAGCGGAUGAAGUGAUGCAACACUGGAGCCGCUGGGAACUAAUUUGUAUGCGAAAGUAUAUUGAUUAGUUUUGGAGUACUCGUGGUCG; details: 30 °C;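 also: selection with 25 µg/mL kanamycin versus none on LB agar overnight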
Criterion: self-splicing fitness (ln) meeting or surpassing -2. Met: y. Not met: n.

sequenceString: GGUAAGCAAUAUUACGUACG
category: y
--
sequenceString: GCACAGCAAUAUUACGUUAU
category: y
--
sequenceString: CUCAAGCAAUAUUACGCGUU
category: n

Query string: Given `CGAGAGCAAUAUUACGCGAG` , state whether its self-splicing fitness (ln) is at least -2.
Result string: n

Query string: Check if self-splicing fitness (ln) >= -2 (inclusive). Item: `GAAGAGCAAUAUUACGGGUA`
Result string: n

Query string: Answer whether self-splicing fitness (ln) of `GGGCAGCAAUAUUACGGUGG` is greater than or equal to -2.
Result string: n

Query string: Determine whether measured self-splicing fitness (ln) meets or exceeds -2 for `GGCUAGCAAUAUUACGGGCA`
Result string: y

Query string: Could you tell me if the measured self-splicing fitness (ln) of `ACGUAGCAAUAUUACGAUAC` reaches -2 or more?
Result string: n

Query string: # check: self-splicing fitness (ln) of `UUGUAGCAAUAUUACGUAUA` is greater than or equal to -2
Result string: n

Query string: Say whether `GGCUAGCAAUAUUACGGGGC` shows self-splicing fitness (ln) of -2 or more.
Result string: n
